Tested On: Fibroblast growth factor receptor 1 (Homo sapiens, UniProt P11362)
Sequence (P11362 whole entry): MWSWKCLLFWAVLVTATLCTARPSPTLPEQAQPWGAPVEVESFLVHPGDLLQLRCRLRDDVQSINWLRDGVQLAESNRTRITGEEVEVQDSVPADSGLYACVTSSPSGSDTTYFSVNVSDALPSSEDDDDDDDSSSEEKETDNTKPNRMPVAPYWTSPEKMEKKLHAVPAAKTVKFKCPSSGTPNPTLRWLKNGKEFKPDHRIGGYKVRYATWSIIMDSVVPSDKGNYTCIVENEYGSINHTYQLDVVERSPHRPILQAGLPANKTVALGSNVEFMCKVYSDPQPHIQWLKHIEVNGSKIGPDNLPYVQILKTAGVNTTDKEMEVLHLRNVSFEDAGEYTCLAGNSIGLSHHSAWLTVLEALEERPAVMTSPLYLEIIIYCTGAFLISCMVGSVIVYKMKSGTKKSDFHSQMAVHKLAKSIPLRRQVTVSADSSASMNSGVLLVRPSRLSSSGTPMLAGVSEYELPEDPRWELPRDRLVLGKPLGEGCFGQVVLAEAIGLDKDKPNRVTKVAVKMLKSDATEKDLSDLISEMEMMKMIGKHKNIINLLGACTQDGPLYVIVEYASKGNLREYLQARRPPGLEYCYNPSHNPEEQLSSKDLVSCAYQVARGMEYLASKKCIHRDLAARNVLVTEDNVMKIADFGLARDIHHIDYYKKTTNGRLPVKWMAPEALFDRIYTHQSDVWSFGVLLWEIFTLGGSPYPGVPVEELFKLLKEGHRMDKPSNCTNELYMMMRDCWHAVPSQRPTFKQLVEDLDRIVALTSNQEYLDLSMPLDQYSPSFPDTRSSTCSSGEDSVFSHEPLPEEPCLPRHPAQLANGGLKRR
Readout Type: pIC50
// scale note: pIC50 = -log10(conc_M); give the bare number

Illustrative cases are given below, each with its answer.
c1ccc2c(-c3nc4c(N5CCOCC5)cccc4[nH]3)n[nH]c2c1 = 6.08
CN1CCC(N(C)c2ccc3nc(-c4n[nH]c5ccccc45)[nH]c3c2)CC1 = 7.74
c1ccc2c(-c3nc4ccc(N5CCOCC5)cc4[nH]3)n[nH]c2c1 = 7.00
Fc1cccc2c(-c3nc4ccc(N5CCC(N6CCCCC6)CC5)cc4[nH]3)n[nH]c12 = 6.70
c1ccc(COc2ccc3c(-c4nc5ccc(N6CCC(N7CCCCC7)CC6)cc5[nH]4)n[nH]c3c2)cc1 = 7.64

Note to self: pIC50 of c1ccc2c(-c3nc4cc(OCCCN5CCCC5)ccc4[nH]3)[nH]nc2c1 with Fibroblast growth factor receptor 1 (Homo sapiens, UniProt P11362) was 7.01

Note to self: pIC50 of c1ccc2[nH]c(-c3n[nH]c4ccccc34)nc2c1 with Fibroblast growth factor receptor 1 (Homo sapiens, UniProt P11362) was 5.85

Note to self: pIC50 of CN1CCN(c2ccc3[nH]c(-c4[nH]nc5ccccc45)nc3c2)CC1 with Fibroblast growth factor receptor 1 (Homo sapiens, UniProt P11362) was 7.09

Note to self: pIC50 of c1cc2[nH]nc(-c3nc4ccc(N5CCC(N6CCCCC6)CC5)cc4[nH]3)c2cc1NCC1CCCCC1 with Fibroblast growth factor receptor 1 (Homo sapiens, UniProt P11362) was 7.80

Note to self: pIC50 of c1ccc(COc2ccc3[nH]nc(-c4nc5ccc(N6CCC(N7CCCCC7)CC6)cc5[nH]4)c3c2)cc1 with Fibroblast growth factor receptor 1 (Homo sapiens, UniProt P11362) was 8.10

Note to self: pIC50 of COC(=O)c1ccc2[nH]nc(-c3nc4ccc(N5CCC(N6CCCCC6)CC5)cc4[nH]3)c2c1 with Fibroblast growth factor receptor 1 (Homo sapiens, UniProt P11362) was 7.14

Note to self: pIC50 of c1ccc(Oc2ccc3n[nH]c(-c4nc5cc(N6CCC(N7CCCCC7)CC6)ccc5[nH]4)c3c2)cc1 with Fibroblast growth factor receptor 1 (Homo sapiens, UniProt P11362) was 7.82

Note to self: pIC50 of CN1CCN(Cc2ccc3[nH]c(-c4[nH]nc5ccccc45)nc3c2)CC1 with Fibroblast growth factor receptor 1 (Homo sapiens, UniProt P11362) was 6.57

Note to self: pIC50 of c1ccc2c(-c3nc4cc(-n5ccnc5)ccc4[nH]3)n[nH]c2c1 with Fibroblast growth factor receptor 1 (Homo sapiens, UniProt P11362) was 6.68

====

Species on record: Mus musculus
Experiment Description: Area under curve in mouse
Format: ADME, organism-based
Experimental Conditions: in vivo
Readout Type: AUC (ng·h/mL)
Quick note: give the figure in ng·h/mL, leave out the unit.

The value of AUC measured for the compound Fc1ccc2c(-c3nc4cc(N5CCC(N6CCCCC6)CC5)ccc4[nH]3)[nH]nc2c1 turned out to be 2830

====

Measured IC50 of individual entries
Tested On: Vascular endothelial growth factor receptor 2 (Mus musculus, UniProt P35918)
Sequence (P35918 whole entry): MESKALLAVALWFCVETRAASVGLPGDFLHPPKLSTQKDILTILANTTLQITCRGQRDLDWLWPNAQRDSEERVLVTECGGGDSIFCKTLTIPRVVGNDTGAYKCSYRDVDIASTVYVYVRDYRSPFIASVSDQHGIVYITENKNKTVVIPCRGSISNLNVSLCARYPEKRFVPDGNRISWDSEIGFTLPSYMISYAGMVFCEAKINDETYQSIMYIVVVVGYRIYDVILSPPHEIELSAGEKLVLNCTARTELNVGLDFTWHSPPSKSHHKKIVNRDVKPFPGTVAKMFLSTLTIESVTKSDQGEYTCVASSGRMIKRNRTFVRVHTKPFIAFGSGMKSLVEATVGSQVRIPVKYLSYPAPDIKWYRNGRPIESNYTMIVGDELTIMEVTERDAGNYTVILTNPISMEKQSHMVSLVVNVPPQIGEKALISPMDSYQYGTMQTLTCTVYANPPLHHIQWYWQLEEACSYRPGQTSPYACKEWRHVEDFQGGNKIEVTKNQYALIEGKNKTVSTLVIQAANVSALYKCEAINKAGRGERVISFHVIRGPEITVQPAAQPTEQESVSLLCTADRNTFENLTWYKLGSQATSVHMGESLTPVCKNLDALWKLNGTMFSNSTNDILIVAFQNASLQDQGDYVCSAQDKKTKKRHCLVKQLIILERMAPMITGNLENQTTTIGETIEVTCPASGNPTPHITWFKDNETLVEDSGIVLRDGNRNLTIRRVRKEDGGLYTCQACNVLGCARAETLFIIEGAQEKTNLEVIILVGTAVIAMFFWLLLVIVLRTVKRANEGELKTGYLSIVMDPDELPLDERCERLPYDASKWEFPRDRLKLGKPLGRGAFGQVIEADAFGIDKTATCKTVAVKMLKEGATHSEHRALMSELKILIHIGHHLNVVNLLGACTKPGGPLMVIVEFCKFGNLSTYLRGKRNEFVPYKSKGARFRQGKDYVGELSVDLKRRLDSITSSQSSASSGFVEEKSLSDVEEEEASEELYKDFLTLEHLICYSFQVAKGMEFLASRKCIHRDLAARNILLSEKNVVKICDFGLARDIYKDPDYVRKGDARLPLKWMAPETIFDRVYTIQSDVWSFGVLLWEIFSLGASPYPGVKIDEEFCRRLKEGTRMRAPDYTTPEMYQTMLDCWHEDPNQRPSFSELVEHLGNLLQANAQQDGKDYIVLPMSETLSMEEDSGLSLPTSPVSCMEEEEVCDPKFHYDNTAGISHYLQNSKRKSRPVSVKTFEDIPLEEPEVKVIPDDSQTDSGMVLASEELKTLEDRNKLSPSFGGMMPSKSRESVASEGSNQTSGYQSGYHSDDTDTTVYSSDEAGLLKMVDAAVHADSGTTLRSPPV

CN1CCN(Cc2ccc3[nH]c(-c4[nH]nc5ccccc45)nc3c2)CC1 = 260 nM

Note to self: IC50 of c1ccc2c(-c3nc4c(N5CCOCC5)cccc4[nH]3)n[nH]c2c1 with Vascular endothelial growth factor receptor 2 (Mus musculus, UniProt P35918) was > 3000 nM

Note to self: IC50 of c1ccc2c(-c3nc4ccc(N5CCOCC5)cc4[nH]3)n[nH]c2c1 with Vascular endothelial growth factor receptor 2 (Mus musculus, UniProt P35918) was 160 nM

Note to self: IC50 of c1ccc2c(-c3nc4cc(-n5ccnc5)ccc4[nH]3)n[nH]c2c1 with Vascular endothelial growth factor receptor 2 (Mus musculus, UniProt P35918) was 83 nM
